- Measurement notes: Cytotoxicity against mouse RAW264.7 cells at 50 uM after 72 hrs by MTT assay
- Type: cell-based
- Condition info: read-out: INH
Quantity: cytotoxicity at 72 h, 50 µM (%)
Give the number; % is assumed, so skip it.

Please report the recorded cytotoxicity at 72 h, 50 µM for CCOC(=O)c1sc(-c2ccncc2)nc1N1CCC(NCc2ccc(Cl)cc2Cl)CC1 . 18.4

Give the measured cytotoxicity at 72 h, 50 µM of CCOC(=O)c1sc(-c2ccncc2)nc1N1CCC(NCc2ccc(C(F)(F)F)cc2)CC1 . 18.1

Record request: cytotoxicity at 72 h, 50 µM value, item CCOC(=O)c1sc(-c2ccccn2)nc1N1CCC(NCc2ccc(C(F)(F)F)cc2)CC1 14.6

Looking for the measured cytotoxicity at 72 h, 50 µM of CCOC(=O)c1sc(-c2ccncc2)nc1N1CCC(NCc2ccc(Cl)c(Cl)c2)CC1 , can you help? 32.2

# cytotoxicity at 72 h, 50 µM lookup, item CCOC(=O)c1sc(-c2ccncc2)nc1N1CCC(NCc2ccc(F)cc2)CC1 17.4

Consider the compound shown here: CCOC(=O)c1sc(-c2ccccc2)nc1N1CCC(NCc2ccc(OCc3ccccc3)cc2)CC1 What is its recorded cytotoxicity at 72 h, 50 µM? 18.4

Requested read-out: cytotoxicity at 72 h, 50 µM. Entry: CCOC(=O)c1sc(-c2ccncc2)nc1N1CCC(NCc2ccc(OC)cc2)CC1 16.1

Any idea what cytotoxicity at 72 h, 50 µM was measured for CCOC(=O)c1sc(-c2ccccc2)nc1N1CCC(NCc2ccc(C(F)(F)F)cc2)CC1 ? 22.7

Value lookup for cytotoxicity at 72 h, 50 µM; key = CCOC(=O)c1sc(-c2ccccn2)nc1N1CCC(NCc2ccc(F)cc2)CC1 12.6

###

- Measurement notes: Cytotoxicity against mouse RAW264.7 cells at 50 uM after 72 hrs by MTT assay
- Assay type: cell-based
- Condition info: read-out: INH
Provide the reported cytotoxicity at 72 h, 50 µM of each item.
Give the quantity in %, number only.

For the molecule shown here, CCOC(=O)c1sc(-c2ccccc2)nc1N1CCC(NCc2ccc(F)cc2)CC1 , give the reported cytotoxicity at 72 h, 50 µM. 6.23

Find the recorded cytotoxicity at 72 h, 50 µM belonging to CCOC(=O)c1sc(-c2ccncc2)nc1N1CCC(NCc2ccc(OCc3ccccc3)cc2)CC1 and report it. 8.04

Look up cytotoxicity at 72 h, 50 µM for this molecule: CCOC(=O)c1sc(-c2ccccn2)nc1N1CCC(NCc2ccc(Cl)cc2Cl)CC1 18.6

What value of cytotoxicity at 72 h, 50 µM has been recorded for this entry: CCOC(=O)c1sc(-c2ccccn2)nc1N1CCC(NCc2ccc(Cl)c(Cl)c2)CC1 30.1

Requested field: cytotoxicity at 72 h, 50 µM. Item: CCOC(=O)c1sc(-c2ccccn2)nc1N1CCC(NCc2ccccc2)CC1 14.6

What value of cytotoxicity at 72 h, 50 µM has been recorded for this entry: CCOC(=O)c1sc(-c2ccncc2)nc1N1CCC(NCc2ccccc2)CC1 10.8

Recorded cytotoxicity at 72 h, 50 µM for CCOC(=O)c1sc(-c2ccccn2)nc1N1CCC(NCc2ccc(OCc3ccccc3)cc2)CC1 , please? 12.8

If you can, please state the reported cytotoxicity at 72 h, 50 µM value of CCOC(=O)c1sc(-c2ccccc2)nc1N1CCC(NCc2ccccc2)CC1 . 11.7

Report cytotoxicity at 72 h, 50 µM for CCOC(=O)c1sc(-c2ccccc2)nc1N1CCC(NCc2ccc(Cl)cc2Cl)CC1 please. 9.43

Entry CCOC(=O)c1sc(-c2ccccc2)nc1N1CCC(NCc2ccc(Cl)c(Cl)c2)CC1 : reported cytotoxicity at 72 h, 50 µM = ? 18.1
